system: human IgG antibodies in human serum samples; experiment: EIA of human antibody reactivities to overlapping synthetic peptides of TTV ORF1 and ORF2 (Tables 2 and 3); type: binding; conditions: human serum sample 2, negative for TTV DNA by PCR; serum diluted 1:100; OD over 0.500 considered positive
experimental_readout: optical density (OD) at 405 nm
Entry rule: numbers only, all in OD.

Guide cases for optical density (OD) at 405 nm, answers given:
{"input_sequence": "VLICGENTVSRNYATHS (Peptide Immunogen) [compound 10, overlapping synthetic peptide of TTV ORF1]", "optical density (OD) at 405 nm": 0.10}
{"input_sequence": "YTDIKYNPFTDRGEGNM (Peptide Immunogen) [compound 44, overlapping synthetic peptide of TTV ORF1]", "optical density (OD) at 405 nm": 0.11}

Turning now to a further record.
For this sequence ( GLYSSIWLSPGRSYFET (Peptide Immunogen) [compound 42, overlapping synthetic peptide of TTV ORF1] ), measured optical density (OD) at 405 nm is 0.11
